# Tested on: indomethacin-induced gastric ulceration in rats
# test.summary: Inhibition of indomethacin-induced gastric ulceration by prostaglandins, rats
# Assay type: in vivo, Sprague-Dawley strain male rats
# condition.info: Rattus norvegicus, po, 5 h; p.o.; indomethacin 30 mg/kg i.p.; read-out: ED50 (50% inhibition of the ulcer formation)
quantity.name: ED50 (mg/kg)
Numeric only. Scale: mg/kg

// solved cases for ED50 follow
molecule	display.unit	val
CCCCC(C)(C)[C@H](O)/C=C/[C@H]1[C@H](C)CC(=O)[C@@H]1CCCCCCC(=O)O (relative stereo)	mg/kg	0.16
CCCCC[C@H](O)/C=C/[C@H]1[C@H](C)CC(=O)[C@@H]1CCCCCCC(=O)O (relative stereo)	mg/kg	1.18
CCCCC[C@H](O)/C=C/[C@H]1[C@H](O)CC(=O)[C@@H]1C/C=C\CCCC(=O)O [PGE2, reference compound]	mg/kg	0.03

Dear colleague, I am looking for the recorded ED50 of the following molecule: CCCCC[C@H](O)/C=C/[C@H]1[C@@H](C)CC(=O)[C@@H]1CCCCCCC(=O)O (relative stereo) [Compound D, reference compound]
1.64

Also CCCCC(C)(C)[C@H](O)/C=C/[C@H]1[C@H](C)CC(=O)[C@@H]1CCCCCCC(=O)OC (relative stereo) ?
0.26
